Data provenance: patent US20250320312A1

Biological target: T1, Peptide 4: Biotin-AGGGGSGGGGSGGGGSAAA-Tyr-acid (N-terminal biotin; C-terminal acid; no PC)
T1 construct: control peptide without PC
T1 peptide: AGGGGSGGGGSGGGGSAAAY
Test: scFv ELISA
Experimental Endpoint: OD450 (OD450)
Record the value in OD450, omitting the unit from your answer.

Would you please look over these solved cases?
Req: Return reported OD450; argument: PcOxP_DB02_C03 (scFv, V domains shown, scFv in periplasmic extract) VH: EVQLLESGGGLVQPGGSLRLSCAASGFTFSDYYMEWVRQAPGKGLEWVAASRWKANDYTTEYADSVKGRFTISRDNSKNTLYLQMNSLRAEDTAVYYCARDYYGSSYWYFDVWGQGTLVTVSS VL: DIVMTQSPDSLAVSLGERATINCTASESLYSSKHKVHYLAWYQQKPGQPPKLLIYGASNRYIGVPDRFSGSGSGTDFTLTISSLQAEDVAVYYCAQFYVYPLTFGGGTKVEIK
Resp: 0.05

Req: Cool, now PcOxP_DB04_F06 (scFv, V domains shown, scFv in periplasmic extract) VH: EVQLLESGGGLVQPGGSLRLSCAASGDTFSDFYMEWVRQAPGKGLEWVAASRNKANDYTTEYADSVKGRFTISRDNSKNTLYLQMNSLRAEDTAVYYCARDYYGSSYWYFDVWGQGTLVTVSS VL: DIQMTQSPSSLSASVGDRVTITCTASESLSSSKHKVHYLAWYQQKPGKAPKLLIYGASNRYIGVPSRFSGSGSGTDFTLTISSLQPEDFATYYCAQFYSYPLTFGGGTKVEIK
Resp: 0.06

Req: Cool, now PcOxP_DB01_H09 (scFv, V domains shown, scFv in periplasmic extract) VH: EVQLLESGGGLVQPGGSLRLSCAASGFTFSDYYMEWVRQAPGKGLEWVAASRNKANTYTTEYADSVKGRFTISRDNSKNTLYLQMNSLRAEDTAVYYCARDYYGSSYWYDDVWGQGTLVTVSS VL: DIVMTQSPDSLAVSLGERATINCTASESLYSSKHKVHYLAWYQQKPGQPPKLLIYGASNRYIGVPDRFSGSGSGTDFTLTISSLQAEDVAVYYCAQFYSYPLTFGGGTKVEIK
Resp: 0.09

Req: Cool, now PcOxP_DB01_G02 (scFv, V domains shown, scFv in periplasmic extract) VH: EVQLLESGGGLVQPGGSLRLSCAASGFLFSDFYMEWVRQAPGKGLEWVAASRNKANDYTTTYADSVKGRFTISRDNSKNTLYLQMNSLRAEDTAVYYCARDYYGSHYWYFDVWGQGTLVTVSS VL: DIVMTQSPDSLAVSLGERATINCTASESLYSSKHKVHYLAWYQQKPGQPPKLLIYGASNREIGVPDRFSGSGSGTDFTLTISSLQAEDVAVYYCAQFYFYPLTFGGGTKVEIK
Resp: 0.05

Turning now to a further record.
Req: Return reported OD450; argument: PcOxP_DB03_H08 (scFv, V domains shown, scFv in periplasmic extract) VH: EVQLLESGGGLVQPGGSLRLSCAASGGTFSDFYMEWVRQAPGKGLEWVAASRNKANTYTTEYADSVKGRFTISRDNSKNTLYLQMNSLRAEDTAVYYCARDYYGSSYWYFDVWGQGTLVTVSS VL: DIQMTQSPSSLSASVGDRVTITCTASESLYSSKHKVHYLAWYQQKPGKAPKLLIYGSSNRYIGVPSRFSGSGSGTDFTLTISSLQPEDFATYYCAQFYQYPLTFGGGTKVEIK
Resp: 0.06
